B1: Ankyrin repeat and SAM domain-containing protein 6, residues 774 to 836; numbered along this chain, Q68DC2 (parent)
chain: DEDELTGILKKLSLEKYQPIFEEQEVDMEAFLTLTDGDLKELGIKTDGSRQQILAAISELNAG

variants of: B1; assay: abundance fitness (aPCA) (normalised: wild type 0, dead -1); higher = more abundant; growth selection in yeast, the domain comes from the species named; settings: Homo sapiens
Hi there, I'd appreciate the recorded abundance fitness for every entry that follows.
One number for each entry.

mut: S58H
abundance fitness: -0.114

Go through the list and state abundance fitness for each entry.
1. G37Y
2. L12A
3. N61S

[out]
[-0.138, -0.439, -0.173]

Go through the list and state abundance fitness for each entry.
1. T35M
2. S49R
3. A56L

[out]
[-0.65, -0.192, -0.17]

Go through the list and state abundance fitness for each entry.
1. L34M
2. A62I
3. L34A

[out]
1: 0.038; 2: -0.325; 3: -0.403

Go through the list and state abundance fitness for each entry.
1. G37V
2. A56E
3. E2R
4. T33P

[out]
1: -0.028; 2: 0.004; 3: 0.081; 4: -0.712
